Assay Text: In vivo pharmacokinetic study, intravenous
Parameters: species or system female CD-1 mice
Test Parameters: mouse, whole blood; blood, IV 1 mg/kg, female CD-1 mice
Property Label: AUC(0-t) (µM·h)
Respond numerically; units are µM·h and should not be typed.

Answer with the recorded AUC(0-t) for the compound listed here: O=C(O)CNc1c(Nc2ccc(C(F)(F)F)cc2)c(=O)c1=O
0.327

----------
Assay Text: In vivo pharmacokinetic study, intravenous
Parameters: species or system female CD-1 mice
Test Parameters: mouse, whole blood; blood, IV 1 mg/kg, female CD-1 mice
Property Label: Tmax (min)
Respond numerically; units are min and should not be typed.

Answer with the recorded Tmax for the molecule listed here: O=C(O)CNc1c(Nc2ccc(C(F)(F)F)cc2)c(=O)c1=O
4.98

----------
Assay Text: Bi-directional permeability in Caco-2 cell line
Assay type: in vitro ADME
Test Parameters: human, Caco-2, pH 7.4; apical to basolateral, 5 µM, 2 hours
Property Label: Papp A→B at 2 h, 5 µM

Answer with the recorded Papp A→B at 2 h, 5 µM for the compound listed here: O=C(O)CNc1c(Nc2ccc(C(F)(F)F)cc2)c(=O)c1=O [SSA 5]
< 0.06 ×10⁻⁶ cm/s

----------
Assay Text: Quantitative 1H NMR spectroscopy (higher order self-association)
Type: physicochemical
Test Parameters: D2O:EtOH 19:1, 2.78 mM, 298 K; proportion of compound to become NMR silent
Property Label: Quantitative 1H NMR (%) Cation
Respond numerically; units are % and should not be typed.

Answer with the recorded Quantitative 1H NMR (%) Cation for the molecule listed here: O=c1c(NCCCS(=O)(=O)O)c(Nc2ccc(C(F)(F)F)cc2)c1=O
39

Answer with the recorded Quantitative 1H NMR (%) Cation for the molecule listed here: O=C(O)CNc1c(Nc2ccc(C(F)(F)F)cc2)c(=O)c1=O
37

Answer with the recorded Quantitative 1H NMR (%) Cation for the molecule listed here: O=C(O)CNC(=S)Nc1ccc(C(F)(F)F)cc1
39

Answer with the recorded Quantitative 1H NMR (%) Cation for the molecule listed here: Cc1ccc2nc(-c3ccc(NC(=O)NCS(=O)(=O)O)cc3)sc2c1
37

Answer with the recorded Quantitative 1H NMR (%) Cation for the molecule listed here: O=S(=O)(O)CCCNC(=S)Nc1ccc(C(F)(F)F)cc1
31

----------
Assay Text: In vivo pharmacokinetic study, intravenous
Design: species or system female CD-1 mice
Test Parameters: mouse, whole blood; blood, IV 1 mg/kg, female CD-1 mice
Property Label: AUC(0-inf) (µM·h)
Respond numerically; units are µM·h and should not be typed.

Answer with the recorded AUC(0-inf) for the molecule listed here: O=C(O)CNc1c(Nc2ccc(C(F)(F)F)cc2)c(=O)c1=O
0.335

----------
Assay Text: Bi-directional permeability in Caco-2 cell line
Assay type: in vitro ADME
Test Parameters: human, Caco-2, pH 7.4, SSA recovered from the assay after 2 hours; read-out: % Recovery (B-A)
Experimental: Bi-directional Permeability in Caco-2 Cell Line: The bi-directional permeability in Caco-2 cell lines was determined by seeding cells onto an HTS Transwell plate. Cells were cultivated for 14-18 days in a cell culture incubator at 37°C, 5% CO2, 95% relative humidity. […] To assess monolayer integrity the transepithelial electrical resistance (TEER) across the monolayer was measured using Millicell Epithelial volt-ohm meter prior to assay and Lucifer yellow (LY) fluorescence measurement post- […]
Property Label: recovery at 2 h, 5 µM (%)
Respond numerically; units are % and should not be typed.

Answer with the recorded recovery at 2 h, 5 µM for the molecule listed here: O=C(O)CNc1c(Nc2ccc(C(F)(F)F)cc2)c(=O)c1=O
82.6

----------
Assay Text: Metabolic stability in liver microsomes
Assay type: in vitro ADME, rat
Test Parameters: liver microsomes; rat microsomes, 1 µM; read-out: In vitro T1/2
Protocol: Section S5: In vitro and in vivo studies These studies were performed by Contract Research Organisation (CRO) Pharmaron. The methodology provided within the ESI is published within the express permission of this organisation. The percentage of a compound recovered during the analysis process should be 100 %; any deviation from this value indicates experimental limitations such as unintended potential non-specific binding events to experimental equipment, solubility issues, etc. […]
Property Label: half-life at 1 µM

Answer with the recorded half-life at 1 µM for the compound listed here: O=C(O)CNc1c(Nc2ccc(C(F)(F)F)cc2)c(=O)c1=O
> 3.08 h

----------
Assay Text: Calcein loaded vesicle leakage (lysis) assay
Test Parameters: PG vesicles, 15 min (Timepoint 4 in Table S12), 298 K, PBS buffer 5% EtOH
Hi there, I'd appreciate the recorded log10(EC50) for every entry that follows.
Remember, log10 of EC50, in mM.

Answer with the recorded log10(EC50) for the molecule listed here: Cc1ccc2nc(-c3ccc(NC(=O)NCS(=O)(=O)O)cc3)sc2c1
-0.82

Answer with the recorded log10(EC50) for the molecule listed here: O=C(O)CNc1c(Nc2ccc(C(F)(F)F)cc2)c(=O)c1=O
-1.06

Answer with the recorded log10(EC50) for the molecule listed here: O=c1c(NCCCS(=O)(=O)O)c(Nc2ccc(C(F)(F)F)cc2)c1=O
-0.54

Answer with the recorded log10(EC50) for the molecule listed here: O=C(O)CNC(=S)Nc1ccc(C(F)(F)F)cc1
-0.25

Answer with the recorded log10(EC50) for the molecule listed here: O=S(=O)(O)CCCNC(=S)Nc1ccc(C(F)(F)F)cc1
-2.21

----------
Assay Text: Dynamic light scattering (DLS) of SSA aggregates
Assay type: physicochemical
Test Parameters: DLS average intensity particle size distribution, 2.78 mM, EtOH:H2O 1:19
Please use TRUE for Peak 2 (nm) under 200 nm and FALSE for everything else, ties included.

Hello, I'm reviewing records and need to know if Peak 2 (nm) of O=C(O)CNC(=S)Nc1ccc(C(F)(F)F)cc1 [SSA 2] is below 200 nm. Could you check?
TRUE

Hello, I'm reviewing records and need to know if Peak 2 (nm) of Cc1ccc2nc(-c3ccc(NC(=O)NCS(=O)(=O)O)cc3)sc2c1 [SSA 3] is below 200 nm. Could you check?
FALSE

Hello, I'm reviewing records and need to know if Peak 2 (nm) of O=S(=O)(O)CCCNC(=S)Nc1ccc(C(F)(F)F)cc1 [SSA 1] is below 200 nm. Could you check?
TRUE

Hello, I'm reviewing records and need to know if Peak 2 (nm) of O=c1c(NCCCS(=O)(=O)O)c(Nc2ccc(C(F)(F)F)cc2)c1=O [SSA 4] is below 200 nm. Could you check?
TRUE

Hello, I'm reviewing records and need to know if Peak 2 (nm) of O=C(O)CNc1c(Nc2ccc(C(F)(F)F)cc2)c(=O)c1=O [SSA 5] is below 200 nm. Could you check?
TRUE

----------
Hi there, I'd appreciate the recorded PDI for every entry that follows.
Assay Text: Dynamic light scattering (DLS) of SSA aggregates
Assay type: physicochemical
Test Parameters: polydispersity index of DLS dH, 2.78 mM, EtOH:H2O 1:19
Just the number.

Answer with the recorded PDI for the molecule listed here: O=c1c(NCCCS(=O)(=O)O)c(Nc2ccc(C(F)(F)F)cc2)c1=O [SSA 4]
0.0388

Answer with the recorded PDI for the molecule listed here: O=C(O)CNC(=S)Nc1ccc(C(F)(F)F)cc1 [SSA 2]
0.0350

Answer with the recorded PDI for the molecule listed here: O=C(O)CNc1c(Nc2ccc(C(F)(F)F)cc2)c(=O)c1=O [SSA 5]
0.0614
